Test: Displacement of [3H]NCS-382 from GHB binding site in Sprague-Dawley rat brain synaptosomal membranes after 1 hr by scintillation counting method
List of pKi values.
property.measured: pKi

>>> number("O=C(O)C1=CC(c2ccc(-c3ccccc3)cc2)CC1 (stereo unspecified)")
5.49
>>> number("O=C(O)[C@H]1CCC[C@@H](O)C1 (relative stereo)")
4.45
>>> number("O=C(O)C1=C(Cc2ccccc2)C(O)CC1 (stereo unspecified)")
4.43
>>> number("O=C(O)C1=CC(O)CC1 (stereo unspecified)")
6.89
>>> number("O=C(O)C#CC(O)c1ccc(OCc2ccccc2)cc1 (racemic)")
5.8
>>> number("CC1=C(C(=O)O)CCC1O (stereo unspecified)")
4.1

* * *

Assay: Displacement of [3H]NCS-382 from GHB binding site in Sprague-Dawley rat brain synaptosomal membranes after 1 hr by scintillation counting method
pKi: −log10 of the molar value.
List of pKi values.
property.measured: pKi

>>> number("O=C(O)C1=C[C@@H](O)CC1")
5.85
>>> number("O=C(O)[C@@H]1CC[C@@](O)(c2ccc(-c3ccccc3)cc2)C1")
6.29
>>> number("O=C(O)C1=C(Cc2ccccc2)C(O)CC1 (centres undefined)")
4.42
>>> number("O=C(O)/C=C/C(O)c1ccc(Cc2ccccc2)cc1 (single isomer, unassigned; (+))")
7.52

Ref: ChEMBL document CHEMBL4017548
